Reference for the values: ChEMBL document CHEMBL1124924

# System: Rattus norvegicus
# method_summary: Percent response to 100 ug/kg serotonin was determined as blockade of serotonin-induced bradycardia in anesthetized rat
# Format: functional
Entries and their Response
Supply the numeric figure in %, leaving out any unit text.

Record excerpt, results attached:
{"columns": ["molecule", "observation_type", "result_value"],
 "data": [
  ["Cc1nccn1CC1CCc2c(c3ccccc3n2C)C1=O (stereo not given)", "Response", 0],
  ["CN1[C@@H]2CC[C@H]1C[C@@H](OC(=O)c1c[nH]c3ccccc13)C2", "Response", 0],
  ["c1ccc2c(-c3csc(Cc4c[nH]cn4)n3)c[nH]c2c1", "Response", 14],
  ["Cc1nc(Cc2nc(-c3ccccc3)cs2)c[nH]1", "Response", 0],
  ["c1ccc(-c2csc(Cc3c[nH]cn3)n2)cc1", "Response", 80],
  ["N=C(N)NCc1nc(-c2c[nH]c3ccccc23)cs1", "Response", 60],
  ["Cc1[nH]c2ccc(O)cc2c1CCN", "Response", 41],
  ["Cc1nccn1Cc1nc(-c2c[nH]c3ccccc23)cs1", "Response", 0],
  ["Cc1[nH]cnc1Cc1nc(-c2ccccc2)cs1", "Response", 0]
]}

Enquiry: Using the record for Cc1[nH]cnc1Cc1nc(-c2c[nH]c3ccccc23)cs1 , state its measured Response.
Return: 0

* * *

# measured_on: Serotonin 3 (5-HT3) receptor (Rattus norvegicus, UniProt P35563+Q9JJ16)
# method_summary: In vitro displacement of [3H]ICS-205-930 from 5-hydroxytryptamine 3 receptor in cultured NG-108-15 […] cells
pKi: −log10 of the molar value.
# pKi >= 8 gives class 1, anything below gives class 0

Solved entries (count: 2):
{"columns": ["mol_smiles", "class_label"],
 "data": [
  ["Cc1nccn1Cc1nc(-c2c[nH]c3ccccc23)cs1", "class 0"],
  ["N=C(N)NCc1nc(-c2c[nH]c3ccccc23)cs1", "class 1"]
]}

Enquiry: Determine whether this compound has pKi no lower than 8: Cc1nc(Cc2nc(-c3ccccc3)cs2)c[nH]1
Return: class 0

* * *

# measured_on: Serotonin 3 (5-HT3) receptor (Rattus norvegicus, UniProt P35563+Q9JJ16)
# Sequence (P35563 whole entry): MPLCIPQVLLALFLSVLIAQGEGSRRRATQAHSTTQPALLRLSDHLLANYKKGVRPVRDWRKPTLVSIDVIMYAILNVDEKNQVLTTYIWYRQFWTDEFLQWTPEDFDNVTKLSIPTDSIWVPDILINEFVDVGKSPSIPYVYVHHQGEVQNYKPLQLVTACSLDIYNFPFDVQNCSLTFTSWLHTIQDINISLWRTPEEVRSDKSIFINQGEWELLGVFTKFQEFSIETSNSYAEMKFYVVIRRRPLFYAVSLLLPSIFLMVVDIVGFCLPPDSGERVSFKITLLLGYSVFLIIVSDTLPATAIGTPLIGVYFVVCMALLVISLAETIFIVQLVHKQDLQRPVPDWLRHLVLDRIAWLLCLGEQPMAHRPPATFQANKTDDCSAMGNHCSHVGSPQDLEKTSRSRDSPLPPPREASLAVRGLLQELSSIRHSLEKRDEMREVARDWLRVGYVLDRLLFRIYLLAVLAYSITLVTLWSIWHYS
# Sequence (Q9JJ16 whole entry): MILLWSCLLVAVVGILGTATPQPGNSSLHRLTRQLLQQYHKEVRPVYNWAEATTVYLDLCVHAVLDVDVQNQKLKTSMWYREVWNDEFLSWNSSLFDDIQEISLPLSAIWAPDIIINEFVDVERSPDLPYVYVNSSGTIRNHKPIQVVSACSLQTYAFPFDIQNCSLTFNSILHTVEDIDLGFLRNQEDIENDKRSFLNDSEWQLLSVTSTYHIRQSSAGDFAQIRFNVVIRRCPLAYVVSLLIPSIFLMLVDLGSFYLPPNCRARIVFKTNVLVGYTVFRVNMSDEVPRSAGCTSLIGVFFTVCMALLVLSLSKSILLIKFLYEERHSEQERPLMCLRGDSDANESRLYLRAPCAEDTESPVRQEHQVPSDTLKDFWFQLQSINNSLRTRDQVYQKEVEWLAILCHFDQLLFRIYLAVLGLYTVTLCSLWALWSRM
# method_summary: In vitro displacement of [3H]ICS-205-930 from 5-hydroxytryptamine 3 receptor in cultured NG-108-15 […] cells
observation_type: pKi
Note: pKi values are expressed as the negative base-10 logarithm of concentration in M.

Record excerpt, results attached:
{"columns": ["mol_smiles", "pKi"],
 "data": [
  ["c1ccc2c(-c3csc(Cc4c[nH]cn4)n3)c[nH]c2c1", 7.85],
  ["Cc1[nH]c2ccc(O)cc2c1CCN", 5.91],
  ["c1ccc(-c2csc(Cc3c[nH]cn3)n2)cc1", 9.00]
]}

Enquiry: Using the record for Cc1[nH]cnc1Cc1nc(-c2ccccc2)cs1 , state its measured pKi.
Return: 8.82

Enquiry: Using the record for Cc1[nH]cnc1Cc1nc(-c2c[nH]c3ccccc23)cs1 , state its measured pKi.
Return: 7.98
